Measured On: T1, Human C5 (human, UniProt P01031 19-1676)
T1 construct: The natural protein has a beta and an alpha chain; also called complement factor 5; complement component 5
Assay Summary: SPR, mAb captured by anti-hFc, 25C
Experimental: Equilibrium dissociation constants (KD values) for C5 binding to purified anti-C5 antibodies were determined using a real-time surface plasmon resonance biosensor assay on a Biacore T200 instrument. […] Human C5 was obtained from a commercial source (EMD). […] Association of all the C5 reagents to each of the captured monoclonal antibodies was monitored for 3 minutes and their dissociation in HBST running buffer was monitored for 8 minutes. […]
Provide the reported koff of each item.
Respond with the bare value in s⁻¹.

Could you please provide reported koff for H4H12164P (antibody, human IgG4, V domains shown) VH: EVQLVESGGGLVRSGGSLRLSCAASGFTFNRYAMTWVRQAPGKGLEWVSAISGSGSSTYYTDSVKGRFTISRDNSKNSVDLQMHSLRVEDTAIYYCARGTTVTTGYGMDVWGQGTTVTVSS VL: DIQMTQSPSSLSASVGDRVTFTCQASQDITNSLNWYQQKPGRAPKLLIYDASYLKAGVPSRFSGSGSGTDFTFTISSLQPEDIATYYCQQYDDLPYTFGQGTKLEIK ? Thanks!
8.84e-05

Name the recorded koff of the item H4H12175P (antibody, human IgG4, V domains shown) VH: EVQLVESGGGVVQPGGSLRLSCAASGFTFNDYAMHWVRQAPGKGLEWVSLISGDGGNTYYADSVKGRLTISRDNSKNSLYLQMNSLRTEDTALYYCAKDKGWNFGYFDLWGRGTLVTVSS VL: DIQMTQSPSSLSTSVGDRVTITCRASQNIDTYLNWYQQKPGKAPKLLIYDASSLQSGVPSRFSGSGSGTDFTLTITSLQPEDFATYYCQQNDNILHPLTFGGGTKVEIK in your answer.
0.000196

Give reported koff value for H4H12159P (antibody, human IgG4, V domains shown) VH: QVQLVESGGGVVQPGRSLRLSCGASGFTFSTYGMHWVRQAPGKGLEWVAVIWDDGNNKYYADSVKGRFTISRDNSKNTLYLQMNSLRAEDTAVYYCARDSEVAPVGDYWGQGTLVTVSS VL: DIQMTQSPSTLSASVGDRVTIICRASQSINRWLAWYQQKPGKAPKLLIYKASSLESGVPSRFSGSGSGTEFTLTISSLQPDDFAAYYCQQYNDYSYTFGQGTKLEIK
7.13e-05
